Origin of measurements: patent US20130209543A1

- target: PI3K γ (Homo sapiens, UniProt P48736)
- Sequence (P48736 whole entry, species assumed): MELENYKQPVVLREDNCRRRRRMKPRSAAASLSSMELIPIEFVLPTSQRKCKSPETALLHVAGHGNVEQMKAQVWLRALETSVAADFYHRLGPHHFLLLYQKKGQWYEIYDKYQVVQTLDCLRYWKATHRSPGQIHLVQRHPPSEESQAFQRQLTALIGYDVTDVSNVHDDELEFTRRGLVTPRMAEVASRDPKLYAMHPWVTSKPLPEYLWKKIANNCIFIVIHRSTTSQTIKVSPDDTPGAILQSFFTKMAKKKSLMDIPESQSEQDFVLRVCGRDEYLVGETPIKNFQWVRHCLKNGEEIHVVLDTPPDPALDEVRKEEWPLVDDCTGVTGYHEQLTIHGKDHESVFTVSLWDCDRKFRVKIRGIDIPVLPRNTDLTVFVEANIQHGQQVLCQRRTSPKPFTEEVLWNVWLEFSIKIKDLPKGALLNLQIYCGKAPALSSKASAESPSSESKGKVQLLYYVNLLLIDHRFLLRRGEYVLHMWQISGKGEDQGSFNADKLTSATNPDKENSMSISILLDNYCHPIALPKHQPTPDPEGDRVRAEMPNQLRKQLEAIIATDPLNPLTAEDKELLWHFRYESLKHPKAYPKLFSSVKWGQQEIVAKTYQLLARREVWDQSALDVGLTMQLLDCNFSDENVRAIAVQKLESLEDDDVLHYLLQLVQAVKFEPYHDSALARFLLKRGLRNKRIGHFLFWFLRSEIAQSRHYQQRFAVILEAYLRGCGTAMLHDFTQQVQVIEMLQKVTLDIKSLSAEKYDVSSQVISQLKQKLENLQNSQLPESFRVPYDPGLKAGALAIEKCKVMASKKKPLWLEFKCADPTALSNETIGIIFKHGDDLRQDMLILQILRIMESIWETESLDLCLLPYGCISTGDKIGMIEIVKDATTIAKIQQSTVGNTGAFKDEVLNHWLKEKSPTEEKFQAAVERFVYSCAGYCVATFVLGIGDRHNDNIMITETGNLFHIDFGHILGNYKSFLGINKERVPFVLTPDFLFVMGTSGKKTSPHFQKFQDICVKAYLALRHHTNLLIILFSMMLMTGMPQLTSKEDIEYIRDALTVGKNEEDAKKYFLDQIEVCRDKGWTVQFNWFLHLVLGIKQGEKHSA
- method: PI3K γ kinase assay
- Type: biochemical
- assay_setup: Table 2
pIC50: −log10 of the molar value.
assay_endpoint: pIC50

// below: answered compounds
# compound, target, pIC50
records = [
    ("Nc1ncnc2c1c(-c1cc3cc(O)ccc3[nH]1)nn2C1CCCCC1", "PI3K γ (Homo sapiens, UniProt P48736)", "6.30 to 7.00"),
    ("COc1ccc(Cl)c2cc(-c3nn(C4CCOCC4)c4ncnc(N)c34)[nH]c12", "PI3K γ (Homo sapiens, UniProt P48736)", "< 6.30"),
    ("Nc1ncnc2c1c(-c1cc3c(Cl)cccc3[nH]1)nn2C1CCOCC1", "PI3K γ (Homo sapiens, UniProt P48736)", "< 6.30"),
    ("CC(C)n1nc(-c2cc3c(Cl)ccc(O)c3[nH]2)c2c(N)ncnc21", "PI3K γ (Homo sapiens, UniProt P48736)", "< 6.30"),
    ("CC(=O)N1CCC(n2nc(-c3cc4ccc(O)cc4[nH]3)c3c(N)ncnc32)CC1", "PI3K γ (Homo sapiens, UniProt P48736)", "7.60 to 8.00"),
]

Consider CC(C)n1nc(-c2cc3cc(O)c(Cl)cc3[nH]2)c2c(N)ncnc21 . Its measured pIC50 is < 6.30

Value of pIC50 reported for the compound Nc1ncnc2c1c(-c1cc3cc(O)ccc3[nH]1)nn2C1CCC(N2CCOCC2)CC1 (centres unmarked) is < 6.30

Entry CNC(=O)Cn1nc(-c2cc3cc(O)ccc3[nH]2)c2c(N)ncnc21 — recorded pIC50 = < 6.30

---

- target: PI3K α (Homo sapiens)
- Sequence (P42336 whole entry, species assumed): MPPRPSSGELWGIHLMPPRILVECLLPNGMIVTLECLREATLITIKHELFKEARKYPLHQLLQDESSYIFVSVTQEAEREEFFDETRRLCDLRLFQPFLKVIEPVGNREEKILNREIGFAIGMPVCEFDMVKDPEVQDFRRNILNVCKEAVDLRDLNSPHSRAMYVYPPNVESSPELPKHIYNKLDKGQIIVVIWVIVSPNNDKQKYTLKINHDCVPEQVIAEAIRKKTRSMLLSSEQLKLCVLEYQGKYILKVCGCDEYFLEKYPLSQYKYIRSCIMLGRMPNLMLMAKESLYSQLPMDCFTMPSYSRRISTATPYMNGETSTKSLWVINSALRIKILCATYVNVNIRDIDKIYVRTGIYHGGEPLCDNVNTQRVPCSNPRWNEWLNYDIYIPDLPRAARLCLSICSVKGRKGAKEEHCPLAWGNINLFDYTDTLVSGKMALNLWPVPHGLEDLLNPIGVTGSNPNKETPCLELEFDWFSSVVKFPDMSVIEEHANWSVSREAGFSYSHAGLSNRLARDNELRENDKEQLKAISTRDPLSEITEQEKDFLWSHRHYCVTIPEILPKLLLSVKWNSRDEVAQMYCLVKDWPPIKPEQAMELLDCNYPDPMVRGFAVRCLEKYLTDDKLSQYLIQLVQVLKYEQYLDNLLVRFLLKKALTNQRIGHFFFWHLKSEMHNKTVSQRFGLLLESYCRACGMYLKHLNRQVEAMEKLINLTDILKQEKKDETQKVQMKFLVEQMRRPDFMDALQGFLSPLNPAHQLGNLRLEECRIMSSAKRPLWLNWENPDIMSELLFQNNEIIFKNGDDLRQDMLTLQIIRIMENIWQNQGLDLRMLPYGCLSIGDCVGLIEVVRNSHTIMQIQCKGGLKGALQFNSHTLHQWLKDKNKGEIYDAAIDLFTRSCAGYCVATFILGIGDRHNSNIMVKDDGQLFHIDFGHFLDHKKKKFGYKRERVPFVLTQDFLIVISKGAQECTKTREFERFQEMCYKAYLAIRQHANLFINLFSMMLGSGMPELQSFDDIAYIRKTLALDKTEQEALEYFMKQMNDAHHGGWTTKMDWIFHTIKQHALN
- Sequence (P27986 whole entry partner, species assumed): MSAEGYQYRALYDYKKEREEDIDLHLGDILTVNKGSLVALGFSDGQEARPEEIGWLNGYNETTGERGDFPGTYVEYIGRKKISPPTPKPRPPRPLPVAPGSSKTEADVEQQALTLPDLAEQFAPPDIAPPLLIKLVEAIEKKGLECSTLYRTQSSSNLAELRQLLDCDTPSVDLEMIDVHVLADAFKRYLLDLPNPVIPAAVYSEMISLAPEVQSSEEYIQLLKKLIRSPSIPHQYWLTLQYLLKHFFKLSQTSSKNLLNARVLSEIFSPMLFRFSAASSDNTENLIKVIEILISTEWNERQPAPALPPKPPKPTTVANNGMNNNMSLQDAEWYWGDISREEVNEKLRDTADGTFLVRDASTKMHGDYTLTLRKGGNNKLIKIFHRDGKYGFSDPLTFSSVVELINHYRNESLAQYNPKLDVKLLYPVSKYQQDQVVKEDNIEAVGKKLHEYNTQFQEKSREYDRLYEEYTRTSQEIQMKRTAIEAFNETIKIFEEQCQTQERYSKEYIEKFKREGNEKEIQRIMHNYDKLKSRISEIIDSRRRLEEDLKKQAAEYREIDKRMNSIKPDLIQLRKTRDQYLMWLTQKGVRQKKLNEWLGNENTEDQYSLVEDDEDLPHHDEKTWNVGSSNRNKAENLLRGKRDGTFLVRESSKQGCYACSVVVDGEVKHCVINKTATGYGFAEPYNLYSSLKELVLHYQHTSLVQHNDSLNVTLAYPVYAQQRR
- method: PI3K α kinase assay
- Type: biochemical
- assay_setup: Table 1
Listed here are compounds together with their documented IC50.

# smiles, val
data = [
    ("CC(=O)N1CCC(n2nc(-c3ccc4oc(N)nc4c3)c3c(N)ncnc32)CC1", "< 1000 nM"),
    ("Nc1nc2cc(-c3nn(C4CCOCC4)c4ncnc(N)c34)ccc2o1", "< 1000 nM"),
    ("CC(C)n1cc(-c2ccc3oc(N)nc3c2)c2c(N)ncnc21", "< 1000 nM"),
]

For this compound ( Nc1nc2cc(-c3cn(C4CCOCC4)c4ncnc(N)c34)ccc2o1 ), measured IC50 is < 10000 nM

---

- target: PI3K β (Homo sapiens)
- method: PI3K β kinase assay
- Assay type: biochemical
- assay_setup: Table 2
Listed here: items and their measured IC50.

# smiles, target, IC50
data = [
    ("CC(C)n1nc(-c2cc3cc(O)cc(F)c3[nH]2)c2c(N)ncnc21", "PI3K β (Homo sapiens)", "> 500 nM"),
    ("Nc1ncnc2c1c(-c1cc3cc(O)ccc3[nH]1)nn2C1CCCCC1", "PI3K β (Homo sapiens)", "> 500 nM"),
]

Lab note: next compound to report on.
Per the record, CC(=O)N1CCC(n2nc(-c3cc4cc(O)cc(Cl)c4[nH]3)c3c(N)ncnc32)CC1 has IC50 of > 500 nM

---

- target: PI3K δ (Homo sapiens, UniProt O00329)
- Sequence (O00329 whole entry, species assumed): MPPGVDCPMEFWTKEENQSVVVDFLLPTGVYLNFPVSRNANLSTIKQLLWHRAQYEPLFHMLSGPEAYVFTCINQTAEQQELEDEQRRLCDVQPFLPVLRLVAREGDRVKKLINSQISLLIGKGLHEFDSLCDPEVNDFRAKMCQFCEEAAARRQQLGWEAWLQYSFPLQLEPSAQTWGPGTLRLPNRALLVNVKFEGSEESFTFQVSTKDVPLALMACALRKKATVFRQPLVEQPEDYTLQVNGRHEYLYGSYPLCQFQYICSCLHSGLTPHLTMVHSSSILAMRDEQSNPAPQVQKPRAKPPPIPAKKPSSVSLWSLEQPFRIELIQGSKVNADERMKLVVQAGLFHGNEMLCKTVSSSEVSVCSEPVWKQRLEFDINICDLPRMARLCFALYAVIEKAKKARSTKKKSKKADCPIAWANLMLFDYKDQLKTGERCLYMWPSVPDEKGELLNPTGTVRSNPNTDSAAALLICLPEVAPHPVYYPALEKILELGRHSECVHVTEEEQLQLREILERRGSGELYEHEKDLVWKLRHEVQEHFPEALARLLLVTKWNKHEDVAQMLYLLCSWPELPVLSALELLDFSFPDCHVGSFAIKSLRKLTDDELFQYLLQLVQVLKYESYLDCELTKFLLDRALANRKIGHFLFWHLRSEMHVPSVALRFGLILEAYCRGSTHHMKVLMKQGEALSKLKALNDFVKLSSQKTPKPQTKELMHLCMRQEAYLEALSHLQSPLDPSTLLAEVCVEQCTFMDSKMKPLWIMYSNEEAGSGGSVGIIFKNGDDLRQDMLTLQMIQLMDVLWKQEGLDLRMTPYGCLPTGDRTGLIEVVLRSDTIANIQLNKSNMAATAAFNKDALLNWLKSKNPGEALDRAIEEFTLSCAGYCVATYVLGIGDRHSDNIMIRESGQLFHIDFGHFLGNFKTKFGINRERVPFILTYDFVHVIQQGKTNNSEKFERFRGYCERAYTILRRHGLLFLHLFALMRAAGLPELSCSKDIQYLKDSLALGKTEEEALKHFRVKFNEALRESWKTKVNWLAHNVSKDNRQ
- Sequence (P27986 whole entry partner, species assumed): as the sequence (P27986 whole entry partner, species assumed) above
- method: PI3K δ kinase assay
- Format: biochemical
pIC50: −log10 of the molar value.
assay_endpoint: pIC50

Field pIC50 (entry Nc1ncnc2c1c(-c1cc3cc(O)ccc3[nH]1)nn2C1CCCC1 [Compound 12] ) reads < 6.30
